These entries and their values trace back to patent US9499553B2.

- measurementTarget: human NaPi-IIb (Homo sapiens, UniProt O95436)
- Construct: expressed in transfected cells
- Sequence (O95436 1-690): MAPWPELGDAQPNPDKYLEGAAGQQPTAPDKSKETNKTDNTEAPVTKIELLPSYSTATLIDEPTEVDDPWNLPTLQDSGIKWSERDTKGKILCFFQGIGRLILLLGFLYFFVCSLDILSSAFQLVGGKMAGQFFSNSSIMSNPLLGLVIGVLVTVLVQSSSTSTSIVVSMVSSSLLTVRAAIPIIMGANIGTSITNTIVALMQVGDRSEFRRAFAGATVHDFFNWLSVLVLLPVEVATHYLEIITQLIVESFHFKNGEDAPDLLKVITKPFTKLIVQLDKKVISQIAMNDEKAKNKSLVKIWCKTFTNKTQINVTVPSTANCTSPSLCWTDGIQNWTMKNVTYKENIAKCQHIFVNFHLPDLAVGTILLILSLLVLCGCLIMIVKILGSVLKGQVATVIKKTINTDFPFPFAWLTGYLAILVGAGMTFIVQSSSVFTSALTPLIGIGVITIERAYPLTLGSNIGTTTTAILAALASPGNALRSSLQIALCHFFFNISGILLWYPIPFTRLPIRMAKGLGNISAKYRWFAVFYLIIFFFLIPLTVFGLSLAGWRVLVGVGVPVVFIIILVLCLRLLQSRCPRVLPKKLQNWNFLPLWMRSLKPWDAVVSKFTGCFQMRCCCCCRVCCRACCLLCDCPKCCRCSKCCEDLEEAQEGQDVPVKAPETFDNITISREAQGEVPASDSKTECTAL
- assay: Inhibitory effect on 33PO4 uptake into human NaPi-IIb-expressing CHO cells
- Type: cell-based
- experimentalContext: read-out: IC50
Note to self: use rule met only for IC50 readings below 7 µM; a reading exactly at 7 µM still gets rule not met.

Reference set, count: 5
{"columns": ["compoundSmiles", "group"],
 "data": [
  ["C[C@]12CCCN1N(Cc1ccc(F)cc1)C(=O)C(C(=O)Nc1ccc(C(F)(F)F)cc1-c1cc(C(F)(F)F)ncn1)=C2O", "rule met"],
  ["COc1cccc(CN2C(=O)C(C(=O)Nc3ccc(C(F)(F)F)cc3-c3ccc(C(F)(F)F)nc3)=C(O)[C@@]3(C)CCCN23)c1OC", "rule met"],
  ["C[C@]12CCCN1N(Cc1cccc(F)c1F)C(=O)C(C(=O)Nc1ccc(C(F)(F)F)cc1-c1cccc(F)c1C#N)=C2O", "rule not met"],
  ["C[C@]12CCCN1N(Cc1cccc(Cl)c1F)C(=O)C(C(=O)Nc1ccc(C(F)(F)F)cc1-c1cc(C(F)(F)F)ncn1)=C2O", "rule met"],
  ["C[C@]12CCCN1N(Cc1ccc(OCCN3CCOCC3)c(F)c1F)C(=O)C(C(=O)Nc1ccc(C(F)(F)F)cc1-c1ccc(C(F)(F)F)nc1)=C2O", "rule not met"]
]}

Quick check: does `C[C@]12CCCN1N(Cc1ccc(OCCCCCCOC[C@H](O)CO)c(F)c1F)C(=O)C(C(=O)Nc1cnc(C(F)(F)F)nc1-c1ccc(C(F)(F)F)nc1)=C2O` have IC50 under 7 µM? rule met

Quick check: does `C[C@]12CCCN1N(Cc1cccc(C#N)c1)C(=O)C(C(=O)Nc1cc(F)c(Br)c(F)c1)=C2O` have IC50 under 7 µM? rule not met

Quick check: does `Cc1ncc(-c2cc(C(F)(F)F)ccc2NC(=O)C2=C(O)[C@@]3(C)CCCN3N(Cc3cccc(F)c3F)C2=O)cc1C#N` have IC50 under 7 µM? rule not met

Quick check: does `C[C@]12CCCN1N(Cc1ccc(C#CCCCC(=O)O)c(F)c1F)C(=O)C(C(=O)Nc1ccc(C(F)(F)F)cc1-c1cc(C(F)(F)F)ncn1)=C2O` have IC50 under 7 µM? rule not met

Quick check: does `CSc1ccc(-c2cc(C(F)(F)F)ccc2NC(=O)C2=C(O)[C@@]3(C)CCCN3N(Cc3cccc(F)c3F)C2=O)cn1` have IC50 under 7 µM? rule met

Quick check: does `C[C@]12CCCN1N(Cc1ccc(OCCN3CCOCC3)c(F)c1F)C(=O)C(C(=O)Nc1ccc(C(F)(F)F)cc1-c1ncnc(C#N)c1Cl)=C2O` have IC50 under 7 µM? rule not met

Quick check: does `CCC1(CC)C(O)=C(C(=O)Nc2ccc(Cl)cc2-c2cc(C(F)(F)F)ncn2)C(=O)N(Cc2ccc(OCCN3CCOCC3)c(F)c2F)N1C` have IC50 under 7 µM? rule not met

Quick check: does `CN1N(Cc2cccc(F)c2F)C(=O)C(C(=O)Nc2ccc(C(F)(F)F)nc2-c2ccc(C(F)(F)F)nc2)=C(O)C1(C)C` have IC50 under 7 µM? rule met

Quick check: does `Cc1c(-c2cc(C(F)(F)F)ccc2NC(=O)C2=C(O)[C@H](C(C)(C)C)N(C)N(Cc3ccc(OCCN4CCOCC4)c(F)c3F)C2=O)ncnc1C(F)(F)F` have IC50 under 7 µM? rule met

Quick check: does `C[C@]12CCCN1N(Cc1cccc(F)c1F)C(=O)C(C(=O)Nc1ccc(C(F)(F)F)cc1-c1cnc(Br)cn1)=C2O` have IC50 under 7 µM? rule met

Quick check: does `C[C@]12CCCN1N(Cc1cc(F)ccc1F)C(=O)C(C(=O)Nc1cc(F)c(Br)c(F)c1)=C2O` have IC50 under 7 µM? rule met

Quick check: does `C[C@]12CCCN1N(Cc1cccc(F)c1F)C(=O)C(C(=O)Nc1ccc(C(F)(F)F)cc1-c1ccc(C(F)(F)F)nc1Br)=C2O` have IC50 under 7 µM? rule met

Quick check: does `C[C@]12CCCN1N(Cc1ccc(OCCCCOC[C@H](O)CO)c(F)c1F)C(=O)C(C(=O)Nc1ccc(C(F)(F)F)cc1-c1cc(C(F)(F)F)ncn1)=C2O` have IC50 under 7 µM? rule not met

Quick check: does `C[C@]12CCCN1N(Cc1cc(F)ccc1Br)C(=O)C(C(=O)Nc1cc(F)c(Br)c(F)c1)=C2O` have IC50 under 7 µM? rule met

Quick check: does `CN1N(Cc2ccc(OCCN3CCOC(=O)C3)c(F)c2F)C(=O)C(C(=O)Nc2ccc(C(F)(F)F)cc2-c2cc(C(F)(F)F)ncn2)=C(O)C12CCC2` have IC50 under 7 µM? rule not met
